Tested on: SK-OV-3
Test: NCI tumour cell line growth inhibition, 48 h
Active and inactive are the calls of the source. Cut-off read from the data, not from the text of the source: active = GI50 up to about 1.1 µM and inactive = higher.
Respond only with the outcome that fits, drawn from true = active, false = inactive

Which result was noted for this compound in the test: C=CCC(C)C12CCNC(Cc3ccc(O)cc31)C2C (stereo not given)
false

Which result was noted for this compound in the test: "C=C(C[N+](C)(C)C)N/N=C/c1oc(-c2ccc(OC)c(OC)c2)c(-c2ccc(OC)c(OC)c2)c1[N+](=O)[O-]"
false

Which result was noted for this compound in the test: "C/C(=N\Nc1nc2cc(C)ccc2s1)c1ccccn1"
true

Which result was noted for this compound in the test: "Nc1ccc(S(=O)(=O)c2ccc(NC(=O)c3cccnc3)cc2)cc1"
false

Which result was noted for this compound in the test: "CCCC(=O)Oc1cc(OC(=O)CCC)c2c(C)cc(=O)oc2c1"
false
